Target: Thromboxane A2 receptor (Homo sapiens) (UniProt P21731)
Sequence (whole entry): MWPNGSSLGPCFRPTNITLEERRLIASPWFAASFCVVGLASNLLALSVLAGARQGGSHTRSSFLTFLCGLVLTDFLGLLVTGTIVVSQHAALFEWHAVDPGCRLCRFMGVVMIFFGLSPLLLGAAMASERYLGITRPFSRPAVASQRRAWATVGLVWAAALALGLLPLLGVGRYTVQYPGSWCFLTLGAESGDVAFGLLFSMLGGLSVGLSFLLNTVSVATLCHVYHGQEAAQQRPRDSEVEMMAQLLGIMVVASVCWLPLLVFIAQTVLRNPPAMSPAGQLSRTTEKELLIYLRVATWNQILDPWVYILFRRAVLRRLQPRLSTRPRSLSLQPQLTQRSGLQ
Test: Thromboxane A2 receptor binding affinity was evaluated, which is expressed as competition factor (CF = (IC50-test) / (IC50-standard)
MEASURE_NAME: CF

In [3]: df
Out[3]:
                               query_smiles  data_value
0  O=C(O)CCCC=CCC1=CCC[C@@H]1NS(=O)(=O)c1cccc2cccnc12         560
1  O=C(O)CC/C=C\C[C@H]1[C@H](F)CC[C@@H]1NS(=O)(=O)c1ccccc1[N+](=O)[O-]         370
2  O=C(O)COCCCCC1=CCC[C@@H]1NS(=O)(=O)c1ccccc1          26
3  O=C(O)CC/C=C\CC1=CCC[C@@H]1NS(=O)(=O)c1ccc(Cl)c(Cl)c1          13
4  O=C(O)CCC/C=C\C[C@H]1[C@H](F)CC[C@@H]1NS(=O)(=O)c1ccc(Cl)cc1         0.3
5  O=C(O)CCC/C=C\C[C@H]1[C@H](F)CC[C@@H]1NS(=O)(=O)c1ccc(F)cc1F         1.1
6  Cc1ccc(S(=O)(=O)N[C@H]2CCC=C2C/C=C\CCC(=O)O)cc1         7.4
7  O=C(O)CC/C=C/C[C@H]1[C@H](F)CC[C@@H]1NS(=O)(=O)c1ccc(F)cc1F         6.6
8  O=C(O)COCCCC[C@H]1[C@H](F)CC[C@@H]1NS(=O)(=O)c1ccc(Cl)c(Cl)c1         2.3

* * *

Target: UniProt P21731
Sequence (whole entry): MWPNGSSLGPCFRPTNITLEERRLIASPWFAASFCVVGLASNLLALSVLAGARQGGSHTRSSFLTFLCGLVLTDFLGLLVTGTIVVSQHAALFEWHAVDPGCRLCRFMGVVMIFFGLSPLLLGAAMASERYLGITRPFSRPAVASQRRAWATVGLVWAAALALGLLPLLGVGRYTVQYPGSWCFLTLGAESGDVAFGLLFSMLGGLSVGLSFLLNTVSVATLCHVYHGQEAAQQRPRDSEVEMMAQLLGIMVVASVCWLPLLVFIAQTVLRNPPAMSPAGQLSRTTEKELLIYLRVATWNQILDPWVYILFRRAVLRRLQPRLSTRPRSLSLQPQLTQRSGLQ
Experiment: Thromboxane A2 receptor binding affinity was evaluated, which is expressed as competition factor (CF = (IC50-test) / (IC50-standard)
MEASURE_NAME: CF

In [3]: df
Out[3]:
                                   molecule  data_value
0  O=C(O)CC/C=C\CC1=CCC[C@@H]1NS(=O)(=O)c1ccccc1[N+](=O)[O-]          40
1  O=C(O)CC/C=C\C[C@@H]1[C@@H](CNS(=O)(=O)c2ccc(Cl)cc2)CC[C@H]1F          40
2  O=C(O)CC/C=C\C[C@@H]1[C@@H](CNS(=O)(=O)c2ccc(F)cc2)CC[C@@H]1F          11
3  O=C(O)COCCCC[C@H]1[C@H](F)CC[C@@H]1NS(=O)(=O)c1ccc(F)cc1F          30
4  O=C(O)CC/C=C\CC1=CCC[C@@H]1NS(=O)(=O)c1ccc(F)cc1F          14
5  O=C(O)COCCCCC1=CCC[C@@H]1NS(=O)(=O)c1ccccc1[N+](=O)[O-]         130
6  O=C(O)CCCC=CC[C@H]1[C@H](F)CC[C@@H]1NS(=O)(=O)c1ccc(F)cc1         1.5
7  O=C(O)CC/C=C\C[C@@H]1[C@@H](CNS(=O)(=O)c2ccc(F)cc2)CC[C@H]1F (stereo in doubt; form 1)         300
8  O=C(O)COCCCCC1=CCC[C@@H]1NS(=O)(=O)c1ccc(F)cc1F          22
9  O=C(O)CCC/C=C\CC1=CCC[C@@H]1NS(=O)(=O)c1ccc(F)cc1F         1.5
